The measurements presented in this section are drawn from paper PMC2994747.

- Tested on: CaCo2
- TEST_SUMMARY: MTS cell viability assay
- Format: cell-based, human
- SETTINGS: Homo sapiens, Caco-2, 24 h, read-out: Calculated IC50 after single treatment for 24 h
pIC50 values, listed per item
Quick note: pIC50 means taking -log10 of the concentration in moles per liter.

See these solved cases before continuing.
| COMPOUND | ASSAY_READOUT | RESULT |
| --- | --- | --- |
| Cc1nc(Nc2cccc(Cl)c2)c2cnn(CC(Cl)c3ccccc3)c2n1 (centres unmarked) | pIC50 | 4.49 |
| CC(C)Sc1nc(NCCc2ccccc2)c2cnn(CC(Cl)c3ccccc3)c2n1 (centres unmarked) | pIC50 | 4.05 |
| Cc1nc(Nc2cccc(F)c2)c2cnn(CC(Cl)c3ccccc3)c2n1 (centres unmarked) | pIC50 | 4.42 |

// moving on: another record for pIC50
Quick note, pIC50 for Clc1cccc(Nc2nc(SC3CCCC3)nc3c2cnn3CC(Cl)c2ccccc2)c1 (centres unmarked) landed at 4.19

###

- TARGET_DESC: c-Abl (Homo sapiens)
- Construct: His tag
- Sequence (P00519 whole entry): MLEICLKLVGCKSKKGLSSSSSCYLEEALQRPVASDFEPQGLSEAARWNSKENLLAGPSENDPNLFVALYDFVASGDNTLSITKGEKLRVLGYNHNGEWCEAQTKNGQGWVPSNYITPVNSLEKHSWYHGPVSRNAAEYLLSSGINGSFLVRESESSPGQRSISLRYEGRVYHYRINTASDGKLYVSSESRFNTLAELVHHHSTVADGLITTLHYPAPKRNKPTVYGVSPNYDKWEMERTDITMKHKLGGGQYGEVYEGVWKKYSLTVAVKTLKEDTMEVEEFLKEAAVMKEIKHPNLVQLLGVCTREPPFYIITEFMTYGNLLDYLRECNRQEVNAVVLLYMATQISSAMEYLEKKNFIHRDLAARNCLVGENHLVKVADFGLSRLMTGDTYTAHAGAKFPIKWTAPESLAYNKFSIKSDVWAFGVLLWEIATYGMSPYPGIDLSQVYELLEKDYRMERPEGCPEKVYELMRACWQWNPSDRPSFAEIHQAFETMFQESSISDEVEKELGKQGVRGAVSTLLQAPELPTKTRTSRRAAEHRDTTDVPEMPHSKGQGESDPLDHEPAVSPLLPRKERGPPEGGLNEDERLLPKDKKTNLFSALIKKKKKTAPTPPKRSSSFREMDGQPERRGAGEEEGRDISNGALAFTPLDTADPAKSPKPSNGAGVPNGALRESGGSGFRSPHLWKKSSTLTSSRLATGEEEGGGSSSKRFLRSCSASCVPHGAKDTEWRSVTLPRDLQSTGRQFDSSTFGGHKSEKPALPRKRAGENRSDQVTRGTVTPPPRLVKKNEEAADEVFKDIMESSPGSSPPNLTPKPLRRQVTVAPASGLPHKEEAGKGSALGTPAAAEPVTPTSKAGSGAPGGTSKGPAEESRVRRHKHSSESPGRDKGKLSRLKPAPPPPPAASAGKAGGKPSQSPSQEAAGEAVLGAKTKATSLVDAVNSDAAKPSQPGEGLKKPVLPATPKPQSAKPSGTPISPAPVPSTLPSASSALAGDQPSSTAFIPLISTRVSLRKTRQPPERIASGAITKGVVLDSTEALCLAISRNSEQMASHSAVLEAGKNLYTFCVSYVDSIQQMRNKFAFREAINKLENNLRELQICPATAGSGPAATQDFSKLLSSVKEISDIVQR
- TEST_SUMMARY: Abl filter-binding kinase assay (Abtide, [γ-32P]ATP)
- SETTINGS: isolated Abl; calculated from ID50, ATP-competitive; E0 0.005, S0 0.012 µM
ASSAY_READOUT: Ki (nM)
Dear colleague, please return just the value in nM, with no unit written.

See these solved cases before continuing.
| COMPOUND | TARGET_DESC | Ki [nM] |
| --- | --- | --- |
| Cc1nc(Nc2cccc(F)c2)c2cnn(CC(Cl)c3ccccc3)c2n1 (stereo not shown) | c-Abl (Homo sapiens) | 151 |
| Fc1ccccc1CNc1ncnc2c1cnn2CC(Cl)c1ccc(Br)cc1 (stereo not shown) | c-Abl (Homo sapiens) | 444 |
| Clc1cccc(Nc2nc(SC3CCCC3)nc3c2cnn3CC(Cl)c2ccccc2)c1 (stereo not shown) | c-Abl (Homo sapiens) | 120 |
| CSc1nc(NCCc2ccccc2)c2cnn(C=Cc3ccccc3)c2n1 | c-Abl (Homo sapiens) | 450 |
| BrC(Cn1ncc2c(N3CCOCC3)ncnc21)c1ccccc1 (stereo not shown) | c-Abl (Homo sapiens) | 220 |
| Cc1nc(Nc2cccc(Cl)c2)c2cnn(CC(Cl)c3ccccc3)c2n1 (stereo not shown) | c-Abl (Homo sapiens) | 500 |

// moving on: another record for Ki
Quick note, Ki for CC(C)Sc1nc(NCCc2ccccc2)c2cnn(CC(Cl)c3ccccc3)c2n1 (stereo not shown) landed at 120

###

- System: CaCo2
- TEST_SUMMARY: MTS cell viability assay
- Type: cell-based, human
- SETTINGS: 24 h, read-out: Calculated IC50 after single treatment for 24 h
- Description: Three human and eleven murine cancer cell lines were used. […] Cell culture viability was monitored by CellTiter96® AQueous One Solution Cell Proliferation Assay (Promega GmbH, Mannheim, Germany). […] Absorbance at 490 nm was assayed with a Victor3 Wallac 1420 Multilabel counter (PerkinElmer, Waltham, MA, USA).
pIC50 values, listed per item
Quick note: pIC50 means taking -log10 of the concentration in moles per liter.

See these solved cases before continuing.
| MOLECULE | TARGET_DESC | pIC50 |
| --- | --- | --- |
| CCCCNc1nc(SCC)nc2c1cnn2CC(Cl)c1ccccc1 (centres unmarked) | CaCo2 | 4.25 |
| CSc1nc(Nc2cccc(F)c2)c2cnn(CC(Cl)c3ccc(F)cc3)c2n1 (centres unmarked) | CaCo2 | 4.18 |

// moving on: another record for pIC50
Quick note, pIC50 for CSc1nc(NCc2ccccc2)c2cnn(CC(Cl)c3ccc(F)cc3)c2n1 (centres unmarked) landed at 4.39
